TARGET_DESC: 11β-HSD1 (Homo sapiens, UniProt P28845)
Sequence (P28845 whole entry): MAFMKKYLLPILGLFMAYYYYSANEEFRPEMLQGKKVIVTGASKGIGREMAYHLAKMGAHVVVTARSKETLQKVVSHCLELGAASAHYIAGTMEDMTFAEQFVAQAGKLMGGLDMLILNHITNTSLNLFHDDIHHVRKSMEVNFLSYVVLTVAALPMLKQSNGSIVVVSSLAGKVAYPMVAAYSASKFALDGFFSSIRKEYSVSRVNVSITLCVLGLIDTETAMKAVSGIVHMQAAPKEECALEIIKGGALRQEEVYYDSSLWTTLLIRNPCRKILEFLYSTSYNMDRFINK
EXPERIMENTAL_DETAILS: biochemical
TEST_SETTINGS: IC50 Range, Biological Test Example 1; microsomes from CHO cells overexpressing human 11β-HSD1
pIC50: −log10 of the molar value.
Catalogue of pIC50 values
METRIC: pIC50

MOLECULE	REPORTED_VALUE
CC1(c2cccc(Cl)c2)CCN(c2cccc(N3CCCCC3)n2)C(=O)O1 (centres unmarked)	> 7.00
C[C@@H](c1ccccc1)N1CCC(CO)(c2ccc(F)cc2)OC1=O (single isomer, unassigned) [EXAMPLE 114 Isomer 2]	> 7.00
Cc1cccc(C2(C)CCN([C@@H](C)c3ccccc3)C(=O)O2)c1 (some centres unmarked) [EXAMPLE 87]	> 7.00
COc1ccc([C@H](C)N2CC[C@](CCNS(C)(=O)=O)(c3ccc(F)cc3)OC2=O)cc1	> 7.00
CC1(c2ccccc2)CCN(c2cccc(-c3ccccc3CO)c2)C(=O)O1 (centres unmarked)	6.00 to 7.00
C[C@@H](c1cccc(Cl)c1)N1CC[C@](CCCO)(c2ccc(F)cc2)OC1=O	> 7.00
C[C@@H](c1ccccc1)N1CCC(C)(c2ccc(CN3CCOCC3)cc2)OC1=O (some centres unmarked)	6.00 to 7.00
CC1CC(CCO)(c2ccc(F)cc2)OC(=O)N1[C@@H](C)c1ccc(Br)cc1 (single isomer, unassigned) [EXAMPLE 163 Isomer 2]	> 7.00
CC(O)C[C@]1(c2ccccc2)CCN([C@@H](C)c2ccc(-c3ccc(F)cc3)cc2)C(=O)O1 (single isomer, unassigned) [EXAMPLE 224 Isomer 1]	> 7.00
O=C1OC(CCCO)(c2ccccc2)CCN1C1CC1c1ccccc1 (single isomer, unassigned) [EXAMPLE 188 Isomer 2]	< 7.00
CC(C)C1(CC(O)CO)CCN([C@@H](C)c2ccc(-c3ccc(F)cc3F)cc2)C(=O)O1 (single isomer, unassigned) [EXAMPLE 223 Isomer 4]	< 7.00
COc1ccc([C@H](C)N2CC[C@](CC(O)CO)(c3ccc(F)cc3)OC2=O)cc1 (single isomer, unassigned) [EXAMPLE 206 Isomer 1]	> 7.00
C[C@@H](c1ccc(Br)cc1)N1CC[C@@](CCC(N)=O)(c2ccc(F)cc2F)OC1=O (single isomer, unassigned) [EXAMPLE 504 Isomer 1]	> 7.00
O=C1OC(CCCO)(c2ccc(F)cc2)CCN1Cc1cc(Cl)ccc1Cl (centres unmarked)	> 7.00
CC[C@@H](c1ccc(Br)cc1)N1CC[C@](CCCO)(c2ccccc2)OC1=O	> 7.00
CC(O)C[C@]1(c2ccc(F)cc2)CCN([C@@H](C)c2ccc(F)cc2)C(=O)O1 (some centres unmarked)	> 7.00
C[C@@H](c1ccc(Cl)cc1)N1CC[C@](CCO)(c2ccc(F)cc2)OC1=O	> 7.00
O=C1OC(CCO)(c2ccccc2)CCN1c1cccc(-c2c(Cl)cccc2Cl)c1 (centres unmarked)	> 7.00
CC1(c2ccccc2)CCN(c2cccc(-c3cc(F)cc(F)c3)c2)C(=O)O1 (centres unmarked)	> 7.00
O=C1OC(CC(O)CO)(c2ccccc2)CCN1c1cccc(-c2ccc(F)cc2F)c1 (centres unmarked)	> 7.00
COc1ccc([C@H](C)N2CCC(CC(O)CO)(c3ccccc3)OC2=O)cc1 (single isomer, unassigned) [EXAMPLE 286 Isomer 1]	> 7.00
C[C@@H](c1ccc(Br)cc1)N1CC[C@](CCN2CCCS2(=O)=O)(c2ccccc2)OC1=O	> 7.00
C[C@@H](c1ccccc1)N1CCC(CO)(c2ccc(F)cc2)OC1=O (single isomer, unassigned) [EXAMPLE 114 Isomer 1]	< 6.00
CC(=O)NCCC1(c2ccccc2)CCN(c2cccc(-c3ccc(F)cc3F)c2)C(=O)O1 (centres unmarked)	> 7.00
C[C@@H](c1cccc(C(F)(F)F)c1)N1CC[C@](CCCO)(c2ccc(F)cc2)OC1=O	> 7.00
C=CC[C@@]1(c2ccc(F)cc2)CCN([C@@H](C)c2ccc(Cl)c(F)c2)C(=O)O1 (single isomer, unassigned) [EXAMPLE 497 Isomer 1]	> 7.00
COc1ccc([C@H](C)N2CCC(C)(c3ccccc3)OC2=O)cc1 (some centres unmarked) [EXAMPLE 85]	> 7.00
CC1(c2ccccc2)CCN(c2ccnc(-c3ccc(F)cc3)n2)C(=O)O1 (centres unmarked)	6.00 to 7.00
Cc1nnc(CC[C@]2(c3ccccc3)CCN([C@@H](C)c3ccc(Br)cc3)C(=O)O2)s1	> 7.00
